Test system: Staphylococcus aureus
protocol-text: Antibacterial activity against Staphylococcus aureus MTCC 1430 assessed as growth inhibition at 1250 ug/mL after 48 hr by agar diffusion method
Assay type: functional
condition-details: MTCC 1430, 48 h, read-out: DIZ
measured-metric: zone of inhibition at 1250 µg/mL (mm)
State just the number; it will be interpreted in mm.

Summary: CC1SCC(=O)N1c1nnc2c3ccccc3nc-2s1 (stereo unspecified) , Staphylococcus aureus, zone of inhibition at 1250 µg/mL = 17

# lookup: O=C1CSC(c2ccccn2)N1c1nnc2c3ccccc3nc-2s1 (stereo unspecified) on Staphylococcus aureus, zone of inhibition at 1250 µg/mL = 15

Form field, zone of inhibition at 1250 µg/mL with Staphylococcus aureus, item O=C1CSC(c2cccc3ccccc23)N1c1nnc2c3ccccc3nc-2s1 (stereo unspecified) : 18

CC1SCC(=O)N1c1nnc2c3cc(Cl)ccc3nc-2s1 (stereo unspecified) on Staphylococcus aureus gives zone of inhibition at 1250 µg/mL = 19

Staphylococcus aureus data for O=C1CSC(c2cccc3ccccc23)N1c1nnc2c3cc(Cl)ccc3nc-2s1 (stereo unspecified) ; its zone of inhibition at 1250 µg/mL: 15

Form: item O=C1CSC(c2ccccn2)N1c1nnc2c3cc(Cl)ccc3nc-2s1 (stereo unspecified) ; test system Staphylococcus aureus; zone of inhibition at 1250 µg/mL: 17
